Quantity measured: melting point

CC1(C2CCC3C4CCC5CC6OC6CC5(C)C4C(=O)CC32C)OCCO1 (stereo not given)	159 to 160 °C
CN=C(NCc1ccccc1)NN=Cc1c(Cl)cccc1Cl	84 to 86 °C
CCOC(=O)C(Cc1cccnc1)c1nnc2c(CC(C)C)nc(-c3ccccc3)cn12 (stereo not given)	110 to 111 °C
Cc1c(Cc2ccc(C(C)C)cc2)c2c(c(C)c1NC(=O)CC(C)(C)C)C(N(C)C)C(C)(C)O2 (stereo not given)	138 to 139 °C

Pending compound:
Query :: Specify measured melting point for CC(C(=O)O)c1ccc(C(=O)c2ccc(Cl)s2)cc1 (stereo not given) .
Result :: 137 °C

* * *

Quantity measured: melting point

CN1Cc2cccnc2N(c2ccc(F)cc2)C1=O	212 to 213 °C

Query :: State its melting point: CC(C)C[C@H](N)[C@@H](O)CCS(=O)(=O)CCc1ccccc1
Result :: 153 to 154 °C

Query :: Quote melting point reported for Cc1oc(NC(=O)CCl)c(C#N)c1C please.
Result :: 114 °C

* * *

Quantity measured: melting point

CCn1c(=O)c2[nH]c(/C=C/c3ccc4c(c3)OCCO4)nc2n(CC)c1=O	> 300 °C

Query :: Recall and state the measured melting point for COc1nc2cc([N+](=O)[O-])c(C)c(C(=O)Cl)c2nc1OC .
Result :: 162 to 164 °C

* * *

compounds and their reported melting point

Cc1ccc(C)c(SCCCC(=O)O)c1	61 to 62 °C
CC1(C)C2CC[C@@]1(C)C(=O)C(C(=O)Nc1ccc(F)c(C(F)(F)F)c1)C2=O (stereo not given in full)	96 to 98 °C
COC1=C(OC)C(=O)C2=C(CCC(CCOc3ccc(-c4ccccc4)cc3)CC2)C1=O	109 to 112 °C
CNCCOc1ccc(C(=C(CCO)c2ccccc2)c2ccccc2)cc1	134 to 139 °C
COc1ccc(C(=O)Nc2ccccc2)cc1Nc1cc(C)cc(C)c1	198 to 199 °C

Query :: Return reported melting point. Input compound: CN(C)c1c(C(N)=O)sc2cccc(Cl)c12
Result :: 194 to 196 °C

Query :: Query melting point for COc1cc(NC(=O)Nc2ccccc2)c(O)c(C(C)(C)C)c1
Result :: 147 to 149 °C

* * *

Quantity measured: melting point

NP(N)(=O)NC(=O)c1cccc([N+](=O)[O-])c1	168 to 172 °C

Query :: Return melting point (reported value) for this compound: CCOC(=O)c1nn(-c2ccccc2)c2c1COc1ccccc1-2
Result :: 154 to 156 °C

Query :: Input CC(=O)Nc1ccc(S(=O)(=O)N[C@H]2COCOC[C@H]2OC(C)=O)cc1 (relative stereo) , output reported melting point.
Result :: 184 to 186 °C

Query :: Consider the compound CCCCCS(=O)(=O)NC(=O)CCc1cc(C(C)C)nn1Cc1ccc(Cl)cc1Cl and give its recorded melting point.
Result :: 115 to 117 °C

Query :: Annotate the compound COc1ccc(-c2[nH]nc3c2C(=O)c2c(NC(=O)CN4CCNCC4)cccc2-3)cc1 with its measured melting point.
Result :: 277 °C

Query :: # return recorded melting point for input O=C(O)[C@H](Cc1ccc(C(F)(F)F)cc1)[C@@H](O)c1ccc(F)cc1F (racemic)
Result :: 120 to 121 °C

Query :: Consider the compound CCCCNC(=O)c1cc(S(=O)(=O)NC23CC4CC(CC(C4)C2)C3)cc2c1OCCO2 . State its measured melting point.
Result :: 147 °C

Query :: Report measured melting point; entry is Oc1cc(-c2c3ccccc3c(Br)c3sc4ccccc4c23)ccc1Br
Result :: 111 to 112 °C

Query :: Hello, please tell me recorded melting point for this one: CC(C)[C@H](NC(=O)OCc1ccccc1)C(=O)N[C@@H](C(C)C)[C@@H](O)c1c(-c2ccccc2)c1=O
Result :: 63 to 71 °C

* * *

Catalogue of molecules with associated melting point

For orientation, consider the following solved cases.
O=C1CCN(c2ccccc2)N1CN1C(=O)c2ccccc2S1(=O)=O	209 to 213 °C
N#CC1c2cc(OCc3ccccc3)cc(OCc3ccccc3)c2C=CN1C(=O)c1ccccc1 (stereo not given)	123 to 125 °C
NC(=NO)c1cc2cc(F)c(F)cc2o1	184 °C
Cc1c(CO)c2cnnc(NCc3ccccc3)c2n1Cc1ccccc1	238 to 240 °C

Then this molecule:
Query :: Give a short answer stating reported melting point for OCCCCN1CCC(C(O)(c2ccc(F)cc2)c2ccc(F)cc2)CC1 .
Result :: 130 to 131 °C

* * *

Quantity measured: melting point

Solved entries (count: 5):
NNC(=O)c1c(OCC(F)(F)F)cccc1OCC(F)(F)F	153 to 154 °C
CC(=O)c1cc(N2CCCC2)ccc1NC(=O)c1ccc(OCc2ccccc2)cc1	175 to 178 °C
O=C(O)c1cccc(-c2cccc3cc(Cc4cccc(F)c4)oc23)c1	135 to 136 °C
COC(=O)c1ccc(OCC2CN(c3ccc(NC(C)=O)cc3)C(=O)O2)cc1 (centres undefined)	188 to 190 °C
COc1cccc(CC(=O)O)c1OCc1cc(OCc2ccc3ccccc3n2)n(C(C)C)n1	84 to 85 °C

Query :: Input C=CCc1c(OCC(O)COc2ccc3c(=O)cc(C(=O)O)oc3c2CC=C)ccc(C(C)=O)c1O (centres undefined) , output reported melting point.
Result :: 105 °C

Query :: Return reported melting point. Input molecule: O=C1CNc2ccccc2N1c1ccc(Cl)cc1
Result :: 196 to 199 °C

Query :: Answer with reported melting point of COc1ccc(Cl)cc1C(=O)NS(=O)(=O)c1ccc(C(=O)Cl)cc1
Result :: 138 to 140 °C

Query :: # return recorded melting point for entry COC(=O)c1cc2c(cc1O)OCO2
Result :: 100 to 101 °C

Query :: Please report the measured melting point for CCCc1c(OCCCCC#N)ccc(C(=O)c2ccccc2O)c1O
Result :: 81 to 82 °C

Query :: Please report melting point for the following molecule: CCNCC(=O)N1c2ccccc2NC(=O)c2c1c(C)cn2C
Result :: 175 to 176 °C

Query :: Answer with the recorded melting point of COc1ccccc1Oc1c(NS(=O)(=O)c2ccc(C)cn2)nc(-c2cccc(O)c2)nc1OC only.
Result :: 211 to 216 °C

Query :: Item CCN(CC)c1ccc(C(O)C#Cc2ccc(C(=O)O)c(O)c2)cc1C(C)(C)C (centres undefined) : provide melting point
Result :: 245 °C

Query :: Fill in reported melting point for this entry: CCOC(=O)CNC(=O)CCN(C(=O)c1ccc(Cl)cc1)c1ccc(OC)cc1
Result :: 87 to 89 °C

Query :: Determine from records and report melting point for COc1ccc(N2C(=O)N(c3ccccc3)c3nc(Nc4ccccc4)ncc3C2C)cc1 (centres undefined)
Result :: 222 to 234 °C

Query :: Supply reported melting point belonging to this molecule: CC(C)(C)OC(=O)N1CCCC1c1ccnc(-c2nc(=O)c3ccccc3s2)c1 (centres undefined)
Result :: 195 to 196 °C

Query :: Let me know recorded melting point for COc1ccc(CNc2n[nH]cc2C(N)=O)cc1OC1CCCC1 , thanks.
Result :: 128 to 130 °C

Query :: Let me know recorded melting point for CC(=O)Nc1nc(C#N)cs1 , thanks.
Result :: 185 to 188 °C

Query :: Give the reported melting point for this molecule. N#CC(CCCCOc1ccccc1)(Cn1cncn1)c1ccccc1 (centres undefined)
Result :: 95 to 96 °C

Query :: Return value of melting point for input O=C1NC(c2ccccc2)C(=O)NC1c1ccccc1 (centres undefined) , no commentary.
Result :: 282 to 284 °C

Query :: Report melting point for Cc1ccccc1N1CCN(C(=O)c2ccc3n2Cc2ccccc2N(C(=O)c2ccc(C4CCCCC4)cc2)C3)CC1
Result :: 141 to 143 °C

Query :: Read off the recorded melting point for CC(C)(C(=O)c1ccc(F)cc1)N1CCOCC1
Result :: 63 to 66 °C

Query :: Report measured melting point; entry is Cc1c(Cc2cccc(C(F)(F)F)c2)oc2cccc(-c3cccc(C(=O)O)c3)c12
Result :: 169 to 170 °C

Query :: Name the recorded melting point of the item CC(=O)NCc1ccc2c(C#N)cn(C3CCN(CCc4ccc(F)cc4)CC3)c2c1 in your answer.
Result :: 130 to 131 °C

Query :: Report melting point, nothing else, for this molecule: Cc1cccc(C)c1Oc1cc2c(cc1Cl)C=C(C(=O)O)C(C(F)(F)F)O2 (centres undefined)
Result :: 253 to 259 °C

* * *

Quantity measured: melting point

Here is how some compounds turned out for melting point.
CSc1nnc(-c2ccc3occ(-c4cccc(OC(F)(F)F)c4)c3c2)o1	113 to 114 °C
CC(C)(O)Cn1c(CCO)nc2c(N)nc3cccnc3c21	194 to 195 °C
N#CC=C1CCc2cnc3c(c21)CCO3	153 to 155 °C
CCCCCC1C=CC(c2ccc(Br)cc2)=CC1 (stereo not drawn)	74 °C

Query :: Using the record for CN(C(=O)OC(C)(C)C)c1cc(Oc2ccc(Oc3ccccc3)cc2)ccc1N , state its measured melting point.
Result :: 105 to 106 °C

Query :: Report measured melting point; entry is COc1cc(F)c(C(=O)CCl)c(OC)c1
Result :: 93 to 96 °C
